# system under test: Programmed Death 1 (PD-1) (UniProt Q15116 25-167, limits assumed)
# Sequence (Q15116 25-167 limits assumed): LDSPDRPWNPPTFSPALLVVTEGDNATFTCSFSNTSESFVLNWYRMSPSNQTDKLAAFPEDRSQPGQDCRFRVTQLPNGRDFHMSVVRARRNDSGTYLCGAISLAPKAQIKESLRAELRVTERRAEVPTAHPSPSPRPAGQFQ
# protocol text: rank among the 16 humanized clones by FACS binding data
experimental readout: Ranking FACS data
Report field: quantity (unit follows the number).

Reference set (3 entries):
binder | Ranking FACS data
BAP049-hum01 (antibody, human IgG4 S228P, kappa, V domains shown, Humanized mAb) VH: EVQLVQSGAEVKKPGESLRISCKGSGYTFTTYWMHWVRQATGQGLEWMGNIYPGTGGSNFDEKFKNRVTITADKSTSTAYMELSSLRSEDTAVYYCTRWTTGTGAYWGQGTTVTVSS VL: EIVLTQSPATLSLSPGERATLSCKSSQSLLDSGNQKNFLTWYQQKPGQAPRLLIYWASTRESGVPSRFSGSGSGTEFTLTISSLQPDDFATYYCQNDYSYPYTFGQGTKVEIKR | 2 rank
BAP049-hum02 (antibody, human IgG4 S228P, kappa, V domains shown, also called clone 2) VH: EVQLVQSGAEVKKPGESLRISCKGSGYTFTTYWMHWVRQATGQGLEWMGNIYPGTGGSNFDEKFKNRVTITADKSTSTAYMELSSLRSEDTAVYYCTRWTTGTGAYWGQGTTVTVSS VL: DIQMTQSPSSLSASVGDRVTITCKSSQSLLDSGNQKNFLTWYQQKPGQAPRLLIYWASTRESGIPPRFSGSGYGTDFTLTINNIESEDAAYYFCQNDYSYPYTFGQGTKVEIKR | 6 rank
BAP049-hum04 (antibody, human IgG4 S228P, kappa, V domains shown, also called clone 4) VH: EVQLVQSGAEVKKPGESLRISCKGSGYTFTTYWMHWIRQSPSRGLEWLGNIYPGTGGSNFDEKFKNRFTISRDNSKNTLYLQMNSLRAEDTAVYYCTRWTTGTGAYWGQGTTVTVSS VL: EIVLTQSPATLSLSPGERATLSCKSSQSLLDSGNQKNFLTWYQQKPGKAPKLLIYWASTRESGVPSRFSGSGSGTDFTFTISSLQPEDIATYYCQNDYSYPYTFGQGTKVEIKR | 14 rank

Recorded Ranking FACS data of BAP049-hum16 (antibody, human IgG4 S228P, kappa, V domains shown, also called clone 16) VH: EVQLVQSGAEVKKPGESLRISCKGSGYTFTTYWMHWVRQAPGQGLEWMGNIYPGTGGSNFDEKFKNRFTISRDNSKNTLYLQMNSLRAEDTAVYYCTRWTTGTGAYWGQGTTVTVSS VL: EIVLTQSPDFQSVTPKEKVTITCKSSQSLLDSGNQKNFLTWYQQKPGQAPRLLIYWASTRESGVPSRFSGSGSGTDFTFTISSLEAEDAATYYCQNDYSYPYTFGQGTKVEIKR , please.
15 rank
